Settings: octanol/water
experimental readout: delta logD

Requested read-out: delta logD. Entry: O=C1OC(c2ccc(O)cc2)(c2ccc(O)cc2)c2ccccc21 [PHENOLPHTHALEIN]
0

Requested read-out: delta logD. Entry: CC(C)(C)NC[C@@H](O)COc1ccccc1C1CCCC1
-0.9

Requested read-out: delta logD. Entry: C=CCOc1ccccc1OCC(O)CNC(C)C (stereo unspecified) [OXPRENOLOL]
-0.9

Requested read-out: delta logD. Entry: NS(=O)(=O)c1cc2c(cc1Cl)N=CNS2(=O)=O [CHLOROTHIAZIDE]
0.57

Requested read-out: delta logD. Entry: CCCNC1CCc2nc(N)sc2C1 (stereo unspecified)
-0.9

Requested read-out: delta logD. Entry: COc1ccc2[nH]c([S+]([O-])Cc3ncc(C)c(OC)c3C)nc2c1 (stereo unspecified) [OMEPRAZOLE]
-0.02
